All values here come from ChEMBL document CHEMBL5230123.

# experimental.target: Acetylcholinesterase (Electrophorus electricus)
# Sequence (O42275 whole entry): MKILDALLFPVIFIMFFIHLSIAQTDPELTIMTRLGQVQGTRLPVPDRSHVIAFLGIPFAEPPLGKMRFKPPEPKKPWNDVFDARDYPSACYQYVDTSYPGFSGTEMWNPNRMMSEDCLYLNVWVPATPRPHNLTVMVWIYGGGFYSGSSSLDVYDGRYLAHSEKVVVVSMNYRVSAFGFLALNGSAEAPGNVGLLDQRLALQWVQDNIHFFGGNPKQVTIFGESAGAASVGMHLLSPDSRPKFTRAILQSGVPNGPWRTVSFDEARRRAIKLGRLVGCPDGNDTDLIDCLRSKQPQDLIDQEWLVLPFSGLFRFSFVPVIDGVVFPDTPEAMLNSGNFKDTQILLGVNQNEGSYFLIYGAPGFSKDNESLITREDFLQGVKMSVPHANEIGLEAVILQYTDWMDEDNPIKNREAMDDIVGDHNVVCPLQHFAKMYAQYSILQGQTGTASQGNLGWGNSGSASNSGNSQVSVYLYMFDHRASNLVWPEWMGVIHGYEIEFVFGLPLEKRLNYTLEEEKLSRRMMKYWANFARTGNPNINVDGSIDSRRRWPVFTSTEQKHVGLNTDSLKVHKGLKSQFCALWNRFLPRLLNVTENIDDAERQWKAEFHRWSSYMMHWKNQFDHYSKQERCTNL
# assay.method.text: Inhibition of electric eel AChE using acetylthiocholine iodide as substrate incubated for 6 mins followed by substrate addition by DTNB reagent based Ellman's method
pIC50: −log10 of the molar value.
measurement.label: pIC50

1) Cc1c(Cl)c(=O)oc2cc(OCCCCSC(=S)N3C(C)CCCC3C)ccc12 (stereo not drawn) ... 6.94
2) Cc1c(Cl)c(=O)oc2cc(OCCCSC(=S)N3C(C)CCCC3C)ccc12 (stereo not drawn) ... 7.36
3) Cc1c(Cl)c(=O)oc2cc(OCCCCSC(=S)N3CCCCC3C)ccc12 (stereo not drawn) ... 8.17

----------
IC50 values for the molecules below.
# experimental.target: Amine oxidase [flavin-containing] B (Homo sapiens, UniProt P27338)
# Sequence (P27338 whole entry): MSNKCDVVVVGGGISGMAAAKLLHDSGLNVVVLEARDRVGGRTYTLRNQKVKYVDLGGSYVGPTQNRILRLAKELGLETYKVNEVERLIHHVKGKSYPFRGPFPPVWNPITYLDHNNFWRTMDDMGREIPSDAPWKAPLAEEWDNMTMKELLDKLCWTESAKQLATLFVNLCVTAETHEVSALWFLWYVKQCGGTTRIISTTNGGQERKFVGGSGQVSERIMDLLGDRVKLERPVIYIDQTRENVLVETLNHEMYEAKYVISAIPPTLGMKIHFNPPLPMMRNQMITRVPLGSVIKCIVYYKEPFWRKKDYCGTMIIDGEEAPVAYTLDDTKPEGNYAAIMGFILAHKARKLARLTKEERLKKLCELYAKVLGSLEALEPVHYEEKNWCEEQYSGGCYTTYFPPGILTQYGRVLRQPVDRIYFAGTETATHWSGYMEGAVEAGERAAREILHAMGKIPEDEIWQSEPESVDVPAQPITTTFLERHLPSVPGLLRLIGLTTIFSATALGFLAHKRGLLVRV
# assay.method.text: Inhibition of human MAO-B using benzylamine as substrate
measurement.label: IC50 (nM)

1. COc1cc(/C=C/C(=O)CC(=O)/C=C/c2ccc(O)cc2)ccc1O ... 2450
2. O=C(/C=C/c1ccc(O)cc1)CC(=O)/C=C/c1ccc(O)cc1 [BISDEMETHOXYCURCUMIN] ... 2590
